# assay: Tmax in human NCI-H2228 cell xenografted NOD.CB17-Prkdcscid/J mouse plasma at 3 mg/kg/day for 5 days by HPLC-MS analysis
# Format: ADME, organism-based
# measurement setup: route po, time 5 day

compound	Tmax / h
COc1cc(N2CCC(N3CCN(C)CC3)CC2)ccc1Nc1ncnc(Nc2ccccc2S(=O)(=O)C(C)C)n1 [ASP-3026]	4

###

# assay: Tmax in human NCI-H2228 cell xenografted NOD.CB17-Prkdcscid/J mouse plasma at 10 mg/kg/day for 5 days by HPLC-MS analysis
# Assay type: ADME, organism-based
# measurement setup: route po, time 5 day

compound	Tmax, h
COc1cc(N2CCC(N3CCN(C)CC3)CC2)ccc1Nc1ncnc(Nc2ccccc2S(=O)(=O)C(C)C)n1 [ASP-3026]	4
